# method: Aqueous solubility in citrate buffer at pH 4
# Format: physicochemical
# assay conditions: citrate buffer, read-out: Solubility
readout name: solubility (µg/mL)

a = COC(=O)c1ccc([C@H]2CCOP(=O)(OC[C@H]3O[C@@H](n4ccc(N)nc4=O)[C@@H](O)[C@@H]3O)O2)cc1 (some centres not stated)
b = Nc1ccn([C@@H]2O[C@H](COP3(=O)OCC[C@H](c4cccc(Cl)c4)O3)[C@@H](O)[C@@H]2O)c(=O)n1 (some centres not stated)
c = Nc1ccn([C@@H]2O[C@H](COP3(=O)OCC[C@H](c4cccnc4)O3)[C@@H](O)[C@@H]2O)c(=O)n1 (some centres not stated)
[Q] Arrange by solubility, high to low. Please reply with the labels ordered as requested. Many thanks.
[A] c, a, b
(c: 172000 µg/mL, a: 7400 µg/mL, b: 3700 µg/mL)

====

# method: Stability in phosphate buffer at pH 7.4 at 37 degC at 100 uM after 72 hrs
# Format: physicochemical
# assay conditions: phosphate buffer, pH 7.4; read-out: Stability
readout name: remaining at 72 h, 100 µM (%)

P = Nc1ccn([C@@H]2O[C@H](COP3(=O)OCC[C@H](c4ccc(Br)cc4)O3)[C@@H](O)[C@@H]2O)c(=O)n1 (stereo not given in full)
Q = Nc1ccn([C@@H]2O[C@H](COP3(=O)OCC[C@H](c4cccc(Cl)c4)O3)[C@@H](O)[C@@H]2O)c(=O)n1 (stereo not given in full)
R = Nc1ccn([C@@H]2O[C@H](COP3(=O)OCC[C@H](c4cccnc4)O3)[C@@H](O)[C@@H]2O)c(=O)n1 (stereo not given in full)
[Q] Order the records by remaining at 72 h, 100 µM, with each subsequent value no larger than the one before. Thanks in advance for listing the labels in the requested order.
[A] R, Q, P
(R: 83%, Q: 21%, P: 4%)

A = Nc1ccn([C@@H]2O[C@H](COP3(=O)OCC[C@H](c4ccc(Cl)cc4)O3)[C@@H](O)[C@@H]2O)c(=O)n1 (stereo not given in full)
B = Nc1ccn([C@@H]2O[C@H](COP3(=O)OCC[C@H](c4ccc(F)c(Cl)c4)O3)[C@@H](O)[C@@H]2O)c(=O)n1 (stereo not given in full)
[Q] Looking at A and B , which one comes out lower in remaining at 72 h, 100 µM terms? Field: selected label. Fill in the label of the entry you choose.
[A] A
(A: 4%, B: 52%)

a = COC(=O)c1ccc([C@H]2CCOP(=O)(OC[C@H]3O[C@@H](n4ccc(N)nc4=O)[C@@H](O)[C@@H]3O)O2)cc1 (stereo not given in full)
b = COC(=O)c1cccc([C@H]2CCOP(=O)(OC[C@H]3O[C@@H](n4ccc(N)nc4=O)[C@@H](O)[C@@H]3O)O2)c1 (stereo not given in full)
[Q] Response body: label of entry with the larger remaining at 72 h, 100 µM; valid values a , b . Please indicate the selected item by its label.
[A] a
(a: 61%, b: 23%)

====

# method: Aqueous solubility in citrate buffer at pH 4
# Type: physicochemical
# assay conditions: citrate buffer, read-out: Solubility
readout name: solubility (µg/mL)

I = COC(=O)c1cccc([C@H]2CCOP(=O)(OC[C@H]3O[C@@H](n4ccc(N)nc4=O)[C@@H](O)[C@@H]3O)O2)c1 (some centres undefined)
II = Nc1ccn([C@@H]2O[C@H](COP3(=O)OCC[C@H](c4ccc(F)c(Cl)c4)O3)[C@@H](O)[C@@H]2O)c(=O)n1 (some centres undefined)
III = Nc1ccn([C@@H]2O[C@H](COP3(=O)OCC[C@H](c4cc(Cl)cc(Cl)c4)O3)[C@@H](O)[C@@H]2O)c(=O)n1 (some centres undefined)
IV = Nc1ccn([C@@H]2O[C@H](COP3(=O)OCC[C@@H](c4ccncc4)O3)[C@@H](O)[C@@H]2O)c(=O)n1 (some centres undefined)
[Q] Task for the reader: rank each entry by its solubility, from the minimum upward. Form entry: labels listed in requested order.
[A] III, II, I, IV
